B1: library; a variant is named by its letters at N, in order (parent)
chain: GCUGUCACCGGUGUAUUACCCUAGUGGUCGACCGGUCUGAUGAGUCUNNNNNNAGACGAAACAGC

- Variants of: B1
- assay_explanation: normalized RNA/DNA level without ligand (relative to sTRSVctl = 100) (log10 (% of sTRSVctl)); ligand: hypoxanthine (xanthine aptamer); higher = less ribozyme self-cleavage, higher mRNA level
- condition_context: HEK293T, reporter: mCherry (pCS4076), ligand present: no
test_readout: normalized RNA/DNA level without ligand (log10)
Answers are plain numbers.

{"columns": ["polymer_sequence", "value_measured"],
 "data": [
  ["GCUGUCACCGGUGUAUUACCCUAGUGGUCGACCGGUCUGAUGAGUCUAUUCGAAGACGAAACAGC", 1.74],
  ["GCUGUCACCGGUGUAUUACCCUAGUGGUCGACCGGUCUGAUGAGUCUGGGGAGAGACGAAACAGC", 1.46],
  ["GCUGUCACCGGUGUAUUACCCUAGUGGUCGACCGGUCUGAUGAGUCUCAUACAAGACGAAACAGC", 1.78],
  ["GCUGUCACCGGUGUAUUACCCUAGUGGUCGACCGGUCUGAUGAGUCUUAUUGGAGACGAAACAGC", 1.43],
  ["GCUGUCACCGGUGUAUUACCCUAGUGGUCGACCGGUCUGAUGAGUCUAAGCUGAGACGAAACAGC", 1.23],
  ["GCUGUCACCGGUGUAUUACCCUAGUGGUCGACCGGUCUGAUGAGUCUAGCUAAAGACGAAACAGC", 1.85]
]}

For every listed record, write down its normalized RNA/DNA level without ligand (log10).
1. GCUGUCACCGGUGUAUUACCCUAGUGGUCGACCGGUCUGAUGAGUCUGGUUCCAGACGAAACAGC
2. GCUGUCACCGGUGUAUUACCCUAGUGGUCGACCGGUCUGAUGAGUCUCAAGGUAGACGAAACAGC

[1.95, 1.78]

Items follow; give normalized RNA/DNA level without ligand (log10) for each.
1. GCUGUCACCGGUGUAUUACCCUAGUGGUCGACCGGUCUGAUGAGUCUCGGUUCAGACGAAACAGC
2. GCUGUCACCGGUGUAUUACCCUAGUGGUCGACCGGUCUGAUGAGUCUGAGGAUAGACGAAACAGC
3. GCUGUCACCGGUGUAUUACCCUAGUGGUCGACCGGUCUGAUGAGUCUAAUGCAAGACGAAACAGC
4. GCUGUCACCGGUGUAUUACCCUAGUGGUCGACCGGUCUGAUGAGUCUGGCCUGAGACGAAACAGC
5. GCUGUCACCGGUGUAUUACCCUAGUGGUCGACCGGUCUGAUGAGUCUUUCAAUAGACGAAACAGC

[1.79, 1.7, 1.77, 1.81, 1.81]
